Reference source for all entries: patent US9051342B2

OBSERVABLE: melting point

Assign melting point to the following record: O=C(O)c1cccc(-n2ccc(-c3ccc(N4CCOCC4)cc3)n2)c1 [Compound 82] 230 to 235 °C

Assign melting point to the following record: COc1cccc(-c2cn(-c3ccc(C(=O)O)cc3)nn2)c1 [Compound 204] 276 to 277 °C

Assign melting point to the following record: O=C(O)c1ccc(-c2cnn(-c3ccc(F)cc3F)c2)cc1 [Compound 180] 258 to 260 °C

Assign melting point to the following record: O=C(O)c1cccc(-n2cc(-c3nc4ccccc4o3)cn2)c1 [Compound 121] 331 to 333 °C

Assign melting point to the following record: O=C(O)c1cccc(-c2ccn(-c3ccc([N+](=O)[O-])cc3)n2)c1 [Compound 168] 280 to 281 °C

Assign melting point to the following record: O=C(O)c1cccc(-n2cc(-c3cnccn3)cn2)c1 [Compound 119] 310 to 311 °C
